Target: human purified αVβ5 (Homo sapiens, UniProt P06756+P18084)
Construct: purchased Chemicon International, Inc
Sequence (P06756 31-889 limits assumed): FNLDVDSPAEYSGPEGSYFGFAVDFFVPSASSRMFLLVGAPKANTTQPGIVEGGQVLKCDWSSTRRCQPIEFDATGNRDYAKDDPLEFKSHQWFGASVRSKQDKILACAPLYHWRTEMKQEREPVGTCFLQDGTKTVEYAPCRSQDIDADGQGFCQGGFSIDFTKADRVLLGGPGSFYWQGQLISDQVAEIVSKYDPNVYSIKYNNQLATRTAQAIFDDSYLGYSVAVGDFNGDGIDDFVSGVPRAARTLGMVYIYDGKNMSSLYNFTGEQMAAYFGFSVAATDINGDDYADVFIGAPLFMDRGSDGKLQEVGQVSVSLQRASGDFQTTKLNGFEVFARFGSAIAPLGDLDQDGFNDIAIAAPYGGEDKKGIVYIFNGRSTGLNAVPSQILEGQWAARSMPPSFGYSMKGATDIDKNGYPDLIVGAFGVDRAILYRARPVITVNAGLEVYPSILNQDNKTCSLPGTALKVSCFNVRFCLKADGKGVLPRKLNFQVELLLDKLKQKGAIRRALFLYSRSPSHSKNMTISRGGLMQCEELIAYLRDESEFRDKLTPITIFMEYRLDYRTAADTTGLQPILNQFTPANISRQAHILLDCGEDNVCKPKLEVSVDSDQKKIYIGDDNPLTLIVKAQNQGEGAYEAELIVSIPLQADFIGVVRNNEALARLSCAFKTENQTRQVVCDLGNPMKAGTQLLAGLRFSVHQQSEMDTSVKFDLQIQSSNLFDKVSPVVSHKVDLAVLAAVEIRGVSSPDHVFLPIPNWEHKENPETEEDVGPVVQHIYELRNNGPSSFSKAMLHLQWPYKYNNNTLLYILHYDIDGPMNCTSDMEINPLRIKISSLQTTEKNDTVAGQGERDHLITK
Sequence (P06756 891-1048 partner limits assumed): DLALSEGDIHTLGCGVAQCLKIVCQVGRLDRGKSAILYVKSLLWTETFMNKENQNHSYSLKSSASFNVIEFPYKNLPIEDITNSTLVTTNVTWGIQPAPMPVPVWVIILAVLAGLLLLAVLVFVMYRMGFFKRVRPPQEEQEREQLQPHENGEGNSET
Sequence (P18084 24-799): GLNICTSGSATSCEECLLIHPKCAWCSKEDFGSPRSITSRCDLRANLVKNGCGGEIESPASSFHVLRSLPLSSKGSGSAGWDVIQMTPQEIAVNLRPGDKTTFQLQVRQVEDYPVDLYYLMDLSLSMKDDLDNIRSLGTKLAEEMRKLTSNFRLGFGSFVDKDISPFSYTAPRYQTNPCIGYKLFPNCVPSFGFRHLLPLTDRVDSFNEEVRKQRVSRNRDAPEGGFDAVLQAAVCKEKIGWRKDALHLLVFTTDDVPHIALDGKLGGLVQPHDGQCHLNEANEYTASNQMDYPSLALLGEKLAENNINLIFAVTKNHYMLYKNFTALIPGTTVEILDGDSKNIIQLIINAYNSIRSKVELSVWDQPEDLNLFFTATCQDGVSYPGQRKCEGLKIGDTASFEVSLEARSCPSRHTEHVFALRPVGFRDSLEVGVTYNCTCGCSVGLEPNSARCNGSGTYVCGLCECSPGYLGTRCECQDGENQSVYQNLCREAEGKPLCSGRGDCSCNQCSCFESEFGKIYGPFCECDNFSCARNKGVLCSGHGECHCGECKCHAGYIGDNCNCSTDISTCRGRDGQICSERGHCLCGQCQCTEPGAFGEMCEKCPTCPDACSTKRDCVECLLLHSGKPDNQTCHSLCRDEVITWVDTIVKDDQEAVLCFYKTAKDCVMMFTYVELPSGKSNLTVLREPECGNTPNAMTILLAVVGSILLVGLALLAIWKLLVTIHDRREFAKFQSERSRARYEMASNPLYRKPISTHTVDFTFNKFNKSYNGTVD
Assay: In Vitro Solid Phase Purified αcβ5 Binding Assay (vitronectin/αVβ5)
Settings: vitronectin binding to immobilized purified human αVβ5; mean ± spread; read-out: αvβ5 IC50
Procedure: Human αvβ3 (Chemicon International Inc., Temecula, Calif.), at a concentration of 1 μg/ml dissolved in Tris buffer (20 mM Tris, 1 mM CaCl2, 1 mM MgCl2, 10 μM MnCl2, 150 mM NaCl), was immobilized on Immulon 96 well plates (Dynex Technologies, Chantilly, Va.) overnight at 4° C. Plates were washed and treated with blocking buffer (3% BSA in Tris buffer) for 2 h at 37° C. […] Plates were read at 490 nm on a Molecular Devices (Sunnyvale, Calif.) microplate reader. […]
Property: IC50 (nM)

Take a look at these entries with their results.
{"Compound": "COc1ncc(C(CC(=O)O)CC2CCN(C(=O)CCc3ccc4c(n3)NCCC4)CC2)cn1 (centres unmarked)", "IC50, nM": 3.3}
{"Compound": "O=C(O)CC(CCC1CCN(C(=O)CCc2ccc3c(n2)NCCC3)CC1)c1cccnc1 (centres unmarked)", "IC50, nM": 253}

(I) O=C(O)CC(c1cnc2c(c1)CCCC2)C1CCN(C(=O)CCCc2ccc3c(n2)NCCC3)CC1 (single isomer, unassigned) [Cpd 58a]
(II) O=C(O)CC(CC1CCN(C(=O)CCCc2ccc3c(n2)NCCC3)CC1)c1cccc(F)c1 (centres unmarked)
Query block: Given I and given II , which shows the smaller recorded IC50? API: response body contains the label of the selected item.
Result block: I

(a) O=C(O)CC(CC1CCN(C(=O)CCc2ccc3c(n2)NCCC3)CC1)c1ccc2ccccc2c1 (centres unmarked) [Cpd 56]
(b) O=C(O)CC(CC1CCN(C(=O)CCc2ccc3c(n2)NCCC3)CC1)c1ccccc1 (centres unmarked)
(c) O=C(O)CC(CC1CCN(C(=O)CCc2ccc3c(n2)NCCC3)CC1)c1cccnc1 (centres unmarked)
(d) COc1ncc(C(CC(=O)O)CC2CCN(C(=O)CCc3ccc4c(n3)NCCC4)CC2)c(OC)n1 (centres unmarked)
Query block: Order the records so the highest IC50 appears first and the lowest last. Dear reader, please state the labels in the requested order.
Result block: b, a, d, c

(A) O=C(O)CC(CCC1CCN(C(=O)c2cccc(NC3=NCC(O)CN3)c2)CC1)c1cccnc1 (centres unmarked)
(B) O=C(O)CCCC1CCN(C(=O)CCc2ccc3c(n2)NCCC3)CC1
Query block: Min IC50? A | B Output the label that corresponds to your choice.
Result block: B
(B: 25.3 nM, A: 39.5 nM)

(I) O=C(O)CC(CCC1CCN(C(=O)c2cccc(NC3=NCC(O)CN3)c2)CC1)c1ccc2c(c1)OCO2 (centres unmarked)
(II) O=C(O)CC(CC1CCN(C(=O)CCCc2ccc3c(n2)NCCC3)CC1)c1ccc2c(c1)OCO2 (centres unmarked)
(III) O=C(O)CC(CCC1CCN(C(=O)CCCNc2ccccn2)CC1)c1cnc2ccccc2c1 (centres unmarked)
(IV) O=C(O)CC(CC1CCN(C(=O)CCc2ccc3c(n2)NCCC3)CC1)c1ccc2ccccc2c1 (single isomer, unassigned) [Cpd 56b]
(V) COc1cc(C(CC(=O)O)CC2CCN(C(=O)CCc3ccc4c(n3)NCCC4)CC2)ccc1O (centres unmarked) [Cpd 76a]
Query block: Provide the items ranked by increasing IC50. Quick reminder: the answer is the labels in the order asked.
Result block: V, I, III, II, IV
(V: 16.9 nM, I: 34.7 nM, III: 195 nM, II: 500 nM, IV: 810 nM)

(I) O=C(O)CC(CCC1CCN(C(=O)c2cccc(NC3=NCCCC3)c2)CC1)c1cnc2ccccc2c1 (centres unmarked)
(II) O=C(O)CC(CC1CCN(C(=O)CCc2ccc3c(n2)NCCC3)CC1)c1ccc(Oc2ccccc2)cc1 (centres unmarked)
(III) O=C(O)CC(CC1CCN(C(=O)CCCc2ccc3c(n2)NCCC3)CC1)c1cnc2ccccc2c1 (centres unmarked)
(IV) O=C(O)CC(CC1CCN(C(=O)CCc2ccc3c(n2)NCCC3)CC1)c1ccc2c(c1)OCC2 (centres unmarked) [Cpd 36]
Query block: Arrange the 4 compounds by rising IC50, starting with the smallest. Give the order by naming the labels one after another as requested.
Result block: IV, III, II, I

(A) COc1ccc(C(CCC2CCN(C(=O)CCc3ccc4c(n3)NCCC4)CC2)CC(=O)O)cn1 (single isomer, unassigned) [Cpd 21a]
(B) O=C(O)CC(CC1CCN(C(=O)CCc2ccc3c(n2)NCCC3)CC1)c1cc(F)cc(F)c1 (centres unmarked)
Query block: Quick one: lower IC50, A or B ? Bench note: the answer is the label of the chosen record.
Result block: B
(B: 89.7 nM, A: 841 nM)

(I) O=C(O)CC(CCC1CCN(C(=O)Cc2ccc3c(n2)NCCC3)CC1)c1ccc2c(c1)OCO2 (centres unmarked)
(II) NC(=O)CC(CC1CCN(C(=O)CCc2ccc3c(n2)NCCC3)CC1)c1cccc(F)c1 (racemic)
(III) O=C(O)CC(c1ccc2c(c1)OCO2)C1CCN(C(=O)CCCc2ccc3c(n2)NCCC3)CC1 (centres unmarked)
Query block: Please list the entries, largest IC50 first. Provide your answer as the labels ordered per the instruction.
Result block: I, II, III

---

Target: GP IIb/IIIa (Homo sapiens, UniProt P05106+P08514)
Sequence (P08514 32-887 limits assumed): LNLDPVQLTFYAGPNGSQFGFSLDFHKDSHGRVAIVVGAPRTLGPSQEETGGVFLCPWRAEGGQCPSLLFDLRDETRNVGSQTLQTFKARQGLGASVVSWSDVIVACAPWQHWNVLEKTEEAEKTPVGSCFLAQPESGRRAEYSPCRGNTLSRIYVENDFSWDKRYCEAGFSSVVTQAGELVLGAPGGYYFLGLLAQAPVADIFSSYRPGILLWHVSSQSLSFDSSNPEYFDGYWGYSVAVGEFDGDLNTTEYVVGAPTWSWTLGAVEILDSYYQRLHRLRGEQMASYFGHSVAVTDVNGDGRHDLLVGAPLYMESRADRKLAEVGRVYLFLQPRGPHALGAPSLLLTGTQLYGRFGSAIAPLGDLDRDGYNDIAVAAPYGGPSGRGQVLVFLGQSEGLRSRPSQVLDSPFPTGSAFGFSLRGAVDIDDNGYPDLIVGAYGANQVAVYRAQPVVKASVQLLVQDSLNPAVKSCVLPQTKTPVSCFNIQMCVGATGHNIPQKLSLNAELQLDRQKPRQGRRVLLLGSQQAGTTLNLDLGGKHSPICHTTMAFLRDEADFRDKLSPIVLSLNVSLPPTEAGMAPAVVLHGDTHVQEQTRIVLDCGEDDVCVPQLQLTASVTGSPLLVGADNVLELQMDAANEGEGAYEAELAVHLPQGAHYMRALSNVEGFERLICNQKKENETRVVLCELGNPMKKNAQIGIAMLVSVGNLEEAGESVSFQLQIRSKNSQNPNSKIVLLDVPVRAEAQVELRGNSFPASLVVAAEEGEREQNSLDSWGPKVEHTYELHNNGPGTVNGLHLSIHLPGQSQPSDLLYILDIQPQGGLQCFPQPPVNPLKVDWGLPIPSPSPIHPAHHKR
Sequence (P08514 891-1039 partner limits assumed): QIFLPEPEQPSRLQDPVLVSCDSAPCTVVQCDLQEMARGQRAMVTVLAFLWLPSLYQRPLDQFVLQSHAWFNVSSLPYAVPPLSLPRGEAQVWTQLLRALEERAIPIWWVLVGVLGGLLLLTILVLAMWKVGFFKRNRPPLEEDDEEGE
Sequence (P05106 27-788): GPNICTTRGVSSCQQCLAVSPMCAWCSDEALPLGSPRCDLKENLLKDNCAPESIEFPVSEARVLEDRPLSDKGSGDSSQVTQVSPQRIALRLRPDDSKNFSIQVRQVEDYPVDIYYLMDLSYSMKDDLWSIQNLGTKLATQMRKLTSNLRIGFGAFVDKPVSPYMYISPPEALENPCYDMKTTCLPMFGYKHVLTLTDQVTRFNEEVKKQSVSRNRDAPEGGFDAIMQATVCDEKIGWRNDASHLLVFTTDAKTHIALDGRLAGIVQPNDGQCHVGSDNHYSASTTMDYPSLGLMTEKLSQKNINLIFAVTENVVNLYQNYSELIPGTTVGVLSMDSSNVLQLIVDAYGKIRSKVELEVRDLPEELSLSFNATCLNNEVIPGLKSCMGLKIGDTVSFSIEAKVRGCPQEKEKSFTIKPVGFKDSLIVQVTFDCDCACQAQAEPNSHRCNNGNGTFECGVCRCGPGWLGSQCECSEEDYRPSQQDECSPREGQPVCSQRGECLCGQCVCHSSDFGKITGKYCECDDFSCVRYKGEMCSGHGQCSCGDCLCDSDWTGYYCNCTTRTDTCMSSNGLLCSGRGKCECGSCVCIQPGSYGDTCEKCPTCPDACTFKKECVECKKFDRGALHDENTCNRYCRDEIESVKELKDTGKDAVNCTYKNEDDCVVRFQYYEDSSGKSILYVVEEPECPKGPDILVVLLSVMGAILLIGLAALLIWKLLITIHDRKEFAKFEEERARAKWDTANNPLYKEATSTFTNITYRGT
Experiment: In Vitro Solid Phase Purified GP IIb/IIIa Binding Assay (biotinylated fibrinogen)
Conditions: biotinylated fibrinogen binding to immobilized purified GP IIb/IIIa; mean ± spread; read-out: αIIbβ3 IC50
Procedure: In Vitro Solid Phase Purified GP IIb/IIIa Binding Assay The plate was covered and incubated overnight at 4° C. The GP IIb/IIIa solution was discarded and 150 μL of 5% BSA was added and incubated at RT for 1-3 h. The plate was washed extensively with modified Tyrodes buffer. Biotinylated fibrinogen (25 μL/well) at 2× final concentration was added to the wells that contain the test compounds (25 μL/well). The plate was covered and incubated at RT for 2-4 h. […]
Property: IC50 (µM)

(a) CCOC(=O)CCCC1CCN(C(=O)CCc2ccc3c(n2)NCCC3)CC1
(b) O=C(O)CC(c1ccc2c(c1)OCO2)C1CCN(C(=O)CCCNc2ccccn2)CC1 (centres unmarked)
Query block: Could you please tell me which of these two has the higher IC50: a or b ? API: response body contains the label of the selected item.
Result block: a
(a: 35.6 µM, b: 19.3 µM)

(I) CNc1cccc(C(CC(=O)O)CC2CCN(C(=O)CCc3ccc4c(n3)NCCC4)CC2)c1 (racemic)
(II) O=C(O)CC(CCC1CCN(C(=O)c2cccc(NC3=NCCCN3)c2)CC1)c1cnc2ccccc2c1 (centres unmarked)
(III) COc1ncc(C(CC(=O)O)CC2CCN(C(=O)CCc3ccc4c(n3)NCCC4)CC2)c(OC)n1 (centres unmarked)
Query block: Arrange items by their IC50 values in increasing order. Please list the labels in the order you were asked to rank them.
Result block: II, III, I

---

molecular target: human purified αVβ5 (Homo sapiens, UniProt P06756+P18084); construct: purchased Chemicon International, Inc; test: In Vitro Solid Phase Purified αcβ5 Binding Assay (vitronectin/αVβ5); settings: vitronectin binding to immobilized purified human αVβ5; mean ± spread; read-out: αvβ5 IC50
pIC50: −log10 of the molar value.
Property: pIC50

Example compounds with recorded pIC50:
{"Compound": "O=C(O)CC(c1ccc2c(c1)OCO2)C1CCN(C(=O)CCc2ccc3c(n2)NCCC3)CC1 (centres unmarked) [Cpd 14]", "Tgt": "human purified αVβ5 (Homo sapiens, UniProt P06756+P18084)", "pIC50": 6.97}
{"Compound": "O=C(O)CC(c1ccc2c(c1)OCO2)C1CCN(C(=O)CCCNc2ccccn2)CC1 (centres unmarked) [Cpd 24]", "Tgt": "human purified αVβ5 (Homo sapiens, UniProt P06756+P18084)", "pIC50": 6.41}
{"Compound": "O=C(O)CC(CCC1CCN(C(=O)c2cccc(NC3=NCCCN3)c2)CC1)c1cccnc1 (centres unmarked) [Cpd 6]", "Tgt": "human purified αVβ5 (Homo sapiens, UniProt P06756+P18084)", "pIC50": 6.27}
{"Compound": "O=C(O)CC(CC1CCN(C(=O)CCc2ccc3c(n2)NCCC3)CC1)c1ccc2c(c1)OCO2 (centres unmarked) [Cpd 11]", "Tgt": "human purified αVβ5 (Homo sapiens, UniProt P06756+P18084)", "pIC50": 8.64}
{"Compound": "O=C(O)CC(CCC1CCN(C(=O)CCCNc2ccccn2)CC1)c1ccc2c(c1)OCO2 (centres unmarked) [Cpd 23]", "Tgt": "human purified αVβ5 (Homo sapiens, UniProt P06756+P18084)", "pIC50": 5.70}

(I) COc1ccc(C(CCC2CCN(C(=O)c3cccc(NC4=NCC(O)CN4)c3)CC2)CC(=O)O)cn1 (centres unmarked) [Cpd 10]
(II) O=C(O)CC(CC1CCN(C(=O)CCc2ccc3c(n2)NCCC3)CC1)c1cncc2ccccc12 (centres unmarked) [Cpd 44]
(III) COc1ccc(C(CCC2CCN(C(=O)CCc3ccc4c(n3)NCCC4)CC2)CC(=O)O)cn1 (centres unmarked) [Cpd 21]
Query block: Thanks in advance: please rank these 3 entries by pIC50, highest to lowest. The response must list the labels following the requested ordering.
Result block: II, I, III
(II: 8.70, I: 7.47, III: 6.11)
